These data points were gathered from paper PMC10584170.

# Test system: P. falciparum female gametocytes
# protocolText: P. falciparum Dual Gamete Formation Assay (PfDGFA), female readout (Pfs25-positive female gametes)
# Format: cell-based, Plasmodium falciparum NF54
# conditionInfo: 2µM, 24h preincubation with gametocytes prior to induction of gametogenesis; replicate R1
# Experimental: […] The Pf DGFA was performed as described in Delves et al. 2016 [17]. […] Exflagellation was recorded by capturing 10 frames over 1 s under brightfield illumination using a x4 objective with a 1.5x zoom (effectively x6) attached to an automated Nikon Ti fluorescence microscope. […] The plates were then returned to the microscope and female gametes imaged at x6 using fluorescence microscopy. […]
# % inhibition female (individual replicates) R1 values compiled below
The figure you give is taken to be in %; do not add the unit.

Task item: Param item = COc1cccc(CCNCCCCCCNCCc2ccc(Cl)cc2)c1.Cl ; retrieve measured % inhibition female (individual replicates) R1.
Reply: 18.4

Task item: Suppose we examine the compound COc1cc(C(=O)N2CCN(C(C)C)CC2)ccc1CN(C)CCCCN1CCN(c2cccc(Cl)c2Cl)CC1.Cl ; what % inhibition female (individual replicates) R1 value has been reported?
Reply: 17.9

Task item: Which % inhibition female (individual replicates) R1 reading was recorded for the compound Oc1ccc2[nH]cc(C3CCN(CCCNCc4ccc(-c5ccccc5)cc4)CC3)c2c1 ?
Reply: 11.5

Task item: Field request: % inhibition female (individual replicates) R1 | item: CC1CCCC(C)N1C[C@@H](O)CNS(=O)(=O)c1cccc(C(F)(F)F)c1.Cl (some centres unmarked)
Reply: 10.4

Task item: Which measured % inhibition female (individual replicates) R1 value corresponds to COc1ccc(CCNCCCCCNCCc2ccc(Cl)cc2)cc1OC.Cl ?
Reply: 17.8

***
Task item: // returns reported % inhibition female (individual replicates) R1 for input CC1(C)N=C(N)N=C(N)N1c1ccc(Br)cc1.Cl
Reply: 15.6

Task item: Which % inhibition female (individual replicates) R1 reading was recorded for the compound CCCCCCOc1ccc2ccccc2c1CNCCCCCCNCc1c(OCCCCCC)ccc2ccccc12.CS(=O)(=O)O ?
Reply: 24.3

Task item: Recorded % inhibition female (individual replicates) R1 for c1cc(Cc2ccc(Nc3c4ccccc4nc4ccccc34)cc2)cc(Nc2c3ccccc3nc3ccccc23)c1 , please?
Reply: 13.9
